Experiment: Cytotoxicity against African green monkey Vero cells assessed as cell survival at 0.2 ug/ml after 72 hrs by MTS-PMS assay
Assay type: cell-based
Details: chlorocebus sabaeus, read-out: Survival
measured.endpoint: viability at 72 h, 0.2 ug/ml (%)
Report the value in % with no unit label.

Record request: viability at 72 h, 0.2 ug/ml value, item NNC(=O)c1ccncc1
98

---

Tested on: Mycobacterium tuberculosis
Assay: Antitubercular activity against Mycobacterium tuberculosis H37Rv ATCC 27294 at 6.25 ug/ml after 5 days by MABA method
Type: functional
Conditions: H37Rv ATCC 27294, 120 h, read-out: GI
Provide the recorded inhibition of growth at 6.25 µg/mL for the entries that follow.
API: value field is a number in %; no unit string.

Provide the documented inhibition of growth at 6.25 µg/mL with Mycobacterium tuberculosis as the system for CC(=O)/C(C)=N/OCc1cc(=O)oc2ccc(Cl)cc12
26

What is its inhibition of growth at 6.25 µg/mL for Mycobacterium tuberculosis? Entry: CC(=O)/C(C)=N/OCc1cc(=O)oc2c1ccc1ccccc12
87

Field: inhibition of growth at 6.25 µg/mL (Mycobacterium tuberculosis). Entry: CC(=O)/C(C)=N/OCc1cc(=O)oc2cc(C)cc(C)c12
97

Lab request: please report inhibition of growth at 6.25 µg/mL under test system Mycobacterium tuberculosis for CC(=O)/C(C)=N/OCc1cc(=O)oc2c(C)c(C)ccc12
95

Item: CC(=O)/C(C)=N/OCc1cc(=O)oc2cc(Cl)ccc12 Test system: Mycobacterium tuberculosis Read-out: inhibition of growth at 6.25 µg/mL Value: ?
21
